# Test system: HIV-1 NDK
# EXPERIMENT SUMMARY: HIV-1 infection of C8166 cells (syncytia formation, p24 ELISA) with HIV-1 NDK
# Type: cell-based
# Set-up: key: ++, +, (+), (+)− and − represent decreasing numbers of syncitia formed; ++, +, (+), (+)− and − represent decreasing numbers of syncitia formed; ++, +, (+), (+)− and − represent decreasing numbers of syncitia formed; ++, +, (+), (+)− and − represent decreasing numbers of syncitia formed; ++, +, (+), (+)− and − represent decreasing numbers of syncitia formed
# EXPERIMENTAL SETUP: 5 μM, Day 6
Square brackets hold non-standard residues; d marks the D form. Peptide text beside a SMILES is read from it. Ava = NCCCCC(=O)O
REPORTED METRIC: syncitia formed, Day 6

Some molecules with recorded syncitia formed, Day 6:
Can you share its syncitia formed, Day 6? I mean this molecule: N=C(N)NCCC[C@H](NC(=O)CNC(=O)[C@@H]1CCCN1C(=O)CN)C(=O)NCCCCC(=O)O [GPGR valeric acid, GPGR-NHCH2CH2CH2CH2COOH] (H-GPGR[Ava]-OH; N-terminus assumed) (+)

Now consider C[C@H](NC(=O)[C@H](CCCNC(=N)N)NC(=O)CNC(=O)[C@@H]1CCCN1C(=O)CN)C(=O)N[C@@H](Cc1ccccc1)C(=O)NCCCCC(=O)O [SPC3 monomer valeric acid, GPGRAF-NHCH2CH2CH2CH2COOH] (H-GPGRAF[Ava]-OH; N-terminus assumed) . −

Item: NCC(=O)N1CCC[C@H]1C(=O)NCC(=O)NCCCCC(=O)O [GPG valeric acid, GPG-NHCH2CH2CH2CH2COOH] (H-GPG[Ava]-OH; N-terminus assumed) −

Okay, and N=C(N)NCCC[C@H](NC(=O)CNC(=O)[C@@H]1CCCN1C(=O)CN)C(=O)O [GPGR, reference compound] (H-GPGR-OH; N-terminus and C-terminus assumed) ? +

Moving on to the next molecule: NCC(=O)N1CCC[C@H]1C(=O)NCC(=O)O [GPG, reference compound] (H-Gly-Pro-Gly-OH) −

---
What does the data say about its syncitia formed, Day 6? Entry: C[C@H](NC(=O)[C@H](CCCNC(=N)N)NC(=O)CNC(=O)[C@@H]1CCCN1C(=O)CN)C(=O)NCCCCC(=O)O [GPGRA valeric acid, GPGRA-NHCH2CH2CH2CH2COOH] (H-GPGRA[Ava]-OH; N-terminus assumed) −

* * *

Kindly state IC100 for each of the entries shown.
# Tested on: HIV-1 NDK
# EXPERIMENT SUMMARY: HIV-1 infection of C8166 cells (syncytia formation, p24 ELISA) with HIV-1 NDK
# Type: cell-based
# EXPERIMENTAL SETUP: HIV 1 NDK, Table 10
Square brackets hold non-standard residues; d marks the D form. Peptide text beside a SMILES is read from it. Ava = NCCCCC(=O)O
Use µM as the unit, but write only the number.

For HIV-1 NDK, provide IC100 of C[C@H](NC(=O)[C@H](CCCNC(=N)N)NC(=O)CNC(=O)[C@@H]1CCCN1C(=O)CN)C(=O)NCCCCC(=O)O [GPGRA valeric acid, GPGRA-NHCH2CH2CH2CH2COOH] (H-GPGRA[Ava]-OH; N-terminus assumed) please. 5

Also, C[C@H](NC(=O)[C@H](CCCNC(=N)N)NC(=O)CNC(=O)[C@@H]1CCCN1C(=O)CN)C(=O)N[C@@H](Cc1ccccc1)C(=O)NCCCCC(=O)O [SPC3 monomer valeric acid, GPGRAF-NHCH2CH2CH2CH2COOH] (H-GPGRAF[Ava]-OH; N-terminus assumed) please. 5

Do the same for NCC(=O)N1CCC[C@H]1C(=O)NCC(=O)NCCCCC(=O)O [GPG valeric acid, GPG-NHCH2CH2CH2CH2COOH] (H-GPG[Ava]-OH; N-terminus assumed) please 5
